Please provide measured half-life for the entries that follow.
Assay: Stability of the N-glycosidic bond under acidic conditions, UV-absorbance as a function of time (Example 30)
Type: physicochemical
Settings: 0.1 n hcl; read-out: half life [t(1/2)] of hydrolysis
Field: numeric (min). Do not append units.

// query Find the recorded half-life belonging to Nc1ncnc2c1ncn2[C@H]1CC[C@@H](CO)O1 [ddA, 2',3'-dideoxyadenosine, reference compound] and report it.
// result 1.9

// query Please report the recorded half-life for `Nc1ncnc2c1cnn2[C@H]1CC[C@@H](CO)O1` .
// result 20.4

---

Assay: Hydrolysis of the N-glycosidic bond in hydrochloric acid at 25° C., UV absorption at 258 nm (Example 29)
Format: physicochemical
Settings: 0.1 N HCl, read-out: half life time T/2 of hydrolysis
Would you kindly list half-life for each of these compounds?
Note: unit min is implicit; provide only the numeric part.

// query Please report the recorded half-life for `Nc1ncnc2c1cnn2[C@H]1CC[C@@H](CO)O1` .
// result 20.4

// query Could you share which half-life value was measured for Nc1ncnc2c1ncn2[C@H]1CC[C@@H](CO)O1 [ddA, 2',3'-dideoxyadenosine, reference compound] ?
// result 1.9

---

Assay: Hydrolysis of the N-glycosidic bond in hydrochloric acid at 25° C., UV absorption at 258 nm (Example 29)
Assay type: physicochemical
Settings: 0.01 N HCl, read-out: half life time T/2 of hydrolysis
experimental-endpoint: half-life (h)
# value in h; strip the unit string

// query GET /values?readout=half-life&item= Nc1ncnc2c1ncn2[C@H]1CC[C@@H](CO)O1 [ddA, 2',3'-dideoxyadenosine, reference compound]
// result 0.525

// query # half-life lookup, item Nc1ncnc2c1cnn2[C@H]1CC[C@@H](CO)O1 [c^7 z^8 ddA]
// result 4.67

---

I'd be grateful if you could share measured half-life for these entries.
Assay: Stability of the N-glycosidic bond under acidic conditions, UV-absorbance as a function of time (Example 30)
Type: physicochemical
Details: 0.01 n hcl; read-out: half life [t(1/2)] of hydrolysis
Could you write the number and then its unit?

// query What value of half-life has been recorded for this entry: Nc1nc2c(ncn2[C@H]2CC[C@@H](CO)O2)c(=O)[nH]1 [ddG, reference compound]
// result 0.617 h

// query For `Nc1ncnc2c1cnn2[C@H]1CC[C@@H](CO)O1` , what is its reported half-life?
// result 4.67 h

// query Tell me the measured half-life of `Nc1nc2c(cnn2[C@H]2CC[C@@H](CO)O2)c(=O)[nH]1` , please.
// result 2.25 h

// query Look up half-life for this compound: Nc1ncnc2c1ncn2[C@H]1CC[C@@H](CO)O1 [ddA, 2',3'-dideoxyadenosine, reference compound]
// result 0.525 h
